test name: Intranasal PK in rats: plasma concentrations of released oxymorphone by LC-MS/MS
measurement context: Table 6, relative to oxycodone (OC)
attribute measured: %-tmax of OC (%)
Please give a number only; it is taken to be in %.

Measured %-tmax of OC of COc1ccc2c3c1OC1C(OC(=O)C(C)c4ccc(CC(C)C)cc4)=CCC4(O)C(C2)N(C)CCC314 (mixture of isomers) [Conjugate 6-lbu-OC] : 143

Measured %-tmax of OC of COc1ccc2c3c1O[C@H]1C(OC(=O)c4ccc(O)cc4)=CC[C@@]4(O)[C@@H](C2)N(C)CC[C@]314 [Conjugate 4-OH-Bz-OC] : 90

Measured %-tmax of OC of COc1ccc(C(=O)OC2=CC[C@@]3(O)[C@H]4Cc5ccc(OC)c6c5[C@@]3(CCN4C)[C@H]2O6)cc1 [Conjugate 4-MeO-Bz-OC] : 105

Measured %-tmax of OC of COc1ccc2c3c1O[C@H]1C(OC(=O)/C=C/c4ccccc4)=CC[C@@]4(O)[C@@H](C2)N(C)CC[C@]314 [6-Cinnamate-OC] : 133

----------
test name: Oral PK in rats: plasma concentrations of released oxycodone by LC-MS/MS
measurement context: relative to oxycodone (OC)
attribute measured: %-AUC of OC (%)
Please give a number only; it is taken to be in %.

Measured %-AUC of OC of COc1ccc2c3c1O[C@H]1C(OC(=O)c4cccc(N)c4)=CC[C@@]4(O)[C@@H](C2)N(C)CC[C@]314 [Conjugate 3-ABz-OC] : 83

Measured %-AUC of OC of COc1ccc(C(=O)OC2=CC[C@@]3(O)[C@H]4Cc5ccc(OC)c6c5[C@@]3(CCN4C)[C@H]2O6)cc1 [Conjugate 4-MeO-Bz-OC] : 59

Measured %-AUC of OC of COc1ccc2c3c1OC1C(OC(=O)C(C)c4cccc(Oc5ccccc5)c4)=CCC4(O)C(C2)N(C)CCC314 (mixture of isomers) : 69

Measured %-AUC of OC of COc1ccc2c3c1OC1C(OC(=O)C(C)c4cccc(C(=O)c5ccccc5)c4)=CCC4(O)C(C2)N(C)CCC314 (mixture of isomers) : 81

Measured %-AUC of OC of COc1ccc2c3c1O[C@H]1C(OC(=O)c4ccc(O)cc4)=CC[C@@]4(O)[C@@H](C2)N(C)CC[C@]314 [Conjugate 4-OH-Bz-OC] : 58

Measured %-AUC of OC of COc1ccc2c3c1O[C@H]1C(OC(=O)/C=C/c4ccccc4)=CC[C@@]4(O)[C@@H](C2)N(C)CC[C@]314 [6-Cinnamate-OC] : 60

Measured %-AUC of OC of COc1ccc2c3c1OC1C(OC(=O)C(C)c4ccc(CC(C)C)cc4)=CCC4(O)C(C2)N(C)CCC314 (mixture of isomers) [Conjugate 6-lbu-OC] : 83

----------
test name: Oral PK in rats: plasma concentrations of oxymorphone by LC-MS/MS
measurement context: oxymorphone released, conjugate equivalent to 2 mg/kg freebase oxycodone
Exercise: state measured Cmax for each of the molecules provided.
Remember to put the unit after the number in your answer.

Measured Cmax of COc1ccc2c3c1O[C@H]1C(OC(=O)c4ccc(O)cc4)=CC[C@@]4(O)[C@@H](C2)N(C)CC[C@]314 [Conjugate 4-OH-Bz-OC] : 2.1 ng/mL

Measured Cmax of COc1ccc2c3c1O[C@H]1C(OC(=O)/C=C/c4ccccc4)=CC[C@@]4(O)[C@@H](C2)N(C)CC[C@]314 [6-Cinnamate-OC] : 4.3 ng/mL

Measured Cmax of COc1ccc2c3c1OC1C(OC(=O)C(C)c4ccc(CC(C)C)cc4)=CCC4(O)C(C2)N(C)CCC314 (mixture of isomers) [Conjugate 6-lbu-OC] : 3.7 ng/mL

----------
test name: Oral PK in rats: plasma concentrations of released oxycodone by LC-MS/MS
measurement context: conjugate equivalent to 2 mg/kg freebase oxycodone
Exercise: state measured Cmax for each of the compounds provided.
Please give a number only; it is taken to be in ng/mL.

Measured Cmax of COc1ccc(C(=O)OC2=CC[C@@]3(O)[C@H]4Cc5ccc(OC)c6c5[C@@]3(CCN4C)[C@H]2O6)cc1 [Conjugate 4-MeO-Bz-OC] : 28.5

Measured Cmax of COc1ccc2c3c1O[C@H]1C(OC(=O)c4cccc(N)c4)=CC[C@@]4(O)[C@@H](C2)N(C)CC[C@]314 [Conjugate 3-ABz-OC] : 45.5

Measured Cmax of COc1ccc2c3c1OC1C(OC(=O)C(C)c4cccc(Oc5ccccc5)c4)=CCC4(O)C(C2)N(C)CCC314 (mixture of isomers) : 14.0

Measured Cmax of COc1ccc2c3c1OC1C(OC(=O)C(C)c4ccc(CC(C)C)cc4)=CCC4(O)C(C2)N(C)CCC314 (mixture of isomers) [Conjugate 6-lbu-OC] : 39.5

Measured Cmax of COc1ccc2c3c1O[C@H]1C(OC(=O)c4ccc(O)cc4)=CC[C@@]4(O)[C@@H](C2)N(C)CC[C@]314 [Conjugate 4-OH-Bz-OC] : 35.4

Measured Cmax of COc1ccc2c3c1OC1C(OC(=O)C(C)c4cccc(C(=O)c5ccccc5)c4)=CCC4(O)C(C2)N(C)CCC314 (mixture of isomers) : 14.7

Measured Cmax of COc1ccc2c3c1O[C@H]1C(OC(=O)/C=C/c4ccccc4)=CC[C@@]4(O)[C@@H](C2)N(C)CC[C@]314 [6-Cinnamate-OC] : 35.5

----------
test name: Tamper resistance: percent of OC released under tampering conditions, LC-MS/MS
Type: physicochemical
measurement context: 5% Bicarbonate, RT, 1 hour
Exercise: state measured percent of OC released for each of the compounds provided.
Please give a number only; it is taken to be in %.

Measured percent of OC released of "COc1cc(C(=O)OC2=CC[C@@]3(OC(=O)c4ccc(O)c(OC)c4)[C@H]4Cc5ccc(OC)c6c5[C@@]3(CCN4C)[C@H]2O6)ccc1O" : 0

Measured percent of OC released of COc1ccc2c3c1O[C@H]1C(OC(=O)c4cccc(O)c4)=CC[C@@]4(O)[C@@H](C2)N(C)CC[C@]314 [Conjugate 3-OH-Bz-OC] : 0

----------
test name: Oral PK in rats: plasma concentrations of oxymorphone by LC-MS/MS
measurement context: oxymorphone released, relative to oxycodone (OC)
Assign class by %-AUC of OC: not lower than 60% means Satisfied; lower than 60% means Not satisfied.

**Query** Form field: %-AUC of OC at least 60%? Entry: COc1ccc2c3c1OC1C(OC(=O)C(C)c4cccc(Oc5ccccc5)c4)=CCC4(O)C(C2)N(C)CCC314 (mixture of isomers)
**Result** Satisfied

**Query** Form field: %-AUC of OC at least 60%? Entry: COc1ccc2c3c1OC1C(OC(=O)C(C)c4ccc(CC(C)C)cc4)=CCC4(O)C(C2)N(C)CCC314 (mixture of isomers) [Conjugate 6-lbu-OC]
**Result** Satisfied

**Query** Form field: %-AUC of OC at least 60%? Entry: COc1ccc2c3c1O[C@H]1C(OC(=O)c4cccc(N)c4)=CC[C@@]4(O)[C@@H](C2)N(C)CC[C@]314 [Conjugate 3-ABz-OC]
**Result** Satisfied

**Query** Form field: %-AUC of OC at least 60%? Entry: COc1ccc2c3c1O[C@H]1C(OC(=O)/C=C/c4ccccc4)=CC[C@@]4(O)[C@@H](C2)N(C)CC[C@]314 [6-Cinnamate-OC]
**Result** Satisfied

**Query** Form field: %-AUC of OC at least 60%? Entry: COc1ccc2c3c1OC1C(OC(=O)C(C)c4cccc(C(=O)c5ccccc5)c4)=CCC4(O)C(C2)N(C)CCC314 (mixture of isomers)
**Result** Satisfied

**Query** Form field: %-AUC of OC at least 60%? Entry: COc1ccc2c3c1O[C@H]1C(OC(=O)c4ccc(O)cc4)=CC[C@@]4(O)[C@@H](C2)N(C)CC[C@]314 [Conjugate 4-OH-Bz-OC]
**Result** Not satisfied

**Query** Form field: %-AUC of OC at least 60%? Entry: COc1ccc(C(=O)OC2=CC[C@@]3(O)[C@H]4Cc5ccc(OC)c6c5[C@@]3(CCN4C)[C@H]2O6)cc1 [Conjugate 4-MeO-Bz-OC]
**Result** Not satisfied

----------
test name: Tamper resistance: percent of OC released under tampering conditions, LC-MS/MS
Assay type: physicochemical
measurement context: 5% Bicarbonate, RT, 1 hour
attribute measured: percent of OC released (%)
Please give a number only; it is taken to be in %.

Measured percent of OC released of COc1ccc2c3c1O[C@H]1C(OC(=O)c4ccccc4)=CC[C@@]4(O)[C@@H](C2)N(C)CC[C@]314 [Bz-OC] : 0

Measured percent of OC released of COc1ccc2c3c1OC1C(OC(=O)C(C)c4cccc(C(=O)c5ccccc5)c4)=CCC4(O)C(C2)N(C)CCC314 (mixture of isomers) [6-Ketoprofen-OC] : 3

Measured percent of OC released of COc1ccc2c3c1O[C@H]1C(OC(=O)c4ccc(O)cc4)=CC[C@@]4(O)[C@@H](C2)N(C)CC[C@]314 [Conjugate 4-OH-Bz-OC] : 0

Measured percent of OC released of COc1ccc2c3c1OC1C(OC(=O)C(C)c4ccc(CC(C)C)cc4)=CCC4(O)C(C2)N(C)CCC314 (mixture of isomers) [Conjugate 6-lbu-OC] : 2

Measured percent of OC released of COc1ccc2c3c1O[C@H]1C(OC(=O)c4ccc(O)cc4)=CC[C@@]4(OC(=O)c5ccc(O)cc5)[C@@H](C2)N(C)CC[C@]314 [(4-OH-Bz)2-OC] : 0

Measured percent of OC released of COc1ccc2c3c1O[C@H]1C(OC(=O)c4ccccc4N)=CC[C@@]4(O)[C@@H](C2)N(C)CC[C@]314 [Conjugate 2-ABz-OC] : 3

Measured percent of OC released of COc1ccc2c3c1O[C@H]1C(OC(=O)c4ccccc4)=CC[C@@]4(OC(=O)c5ccccc5)[C@@H](C2)N(C)CC[C@]314 [(Bz)2-OC] : 0

Measured percent of OC released of COc1ccc2c3c1O[C@H]1C(OC(=O)c4cccc(N)c4)=CC[C@@]4(OC(=O)c5cccc(N)c5)[C@@H](C2)N(C)CC[C@]314 [(3-ABz)2-OC] : 0

Measured percent of OC released of COc1ccc2c3c1O[C@H]1C(OC(=O)c4cccc(O)c4)=CC[C@@]4(OC(=O)c5cccc(O)c5)[C@@H](C2)N(C)CC[C@]314 [(3-OH-Bz)2-OC] : 0

Measured percent of OC released of COc1ccc2c3c1O[C@H]1C(OC(=O)/C=C/c4ccccc4)=CC[C@@]4(OC(=O)/C=C/c5ccccc5)[C@@H](C2)N(C)CC[C@]314 [(Cin)2-OC] : 0

Measured percent of OC released of COc1cc(C(=O)OC2=CC[C@@]3(O)[C@H]4Cc5ccc(OC)c6c5[C@@]3(CCN4C)[C@H]2O6)ccc1O [4-OH-3-MeO-Bz-OC] : 0
